Target: intracellular CK2α (Homo sapiens)
Assay: Cell-based NanoBRET assay for inhibitor binding to intracellular CK2α
Conditions: HCT116 cells transiently transfected with CSNK2A2-NanoLuc fusion vector; Tracer K-5; 2 h; read-out: Assay 3: NanoBRET ™ assay for binding to intracellular CK2α
Could you please mark Yes for values of IC50 below 1 µM and No for values at or above it?

{"SMILES STRING": "FC(F)(F)c1ccc2[nH]c(CNCCCCOC3CN(c4cc(-n5cnnc5)cc5[nH]ncc45)C3)cc2c1", "TEST SYSTEM": "intracellular CK2α (Homo sapiens)", "CLASS LABEL": "No"}
{"SMILES STRING": "O=C(Cc1cnc(CCNCc2ccc(OC(F)(F)F)c(Cl)c2)o1)Nc1cc(-n2cnnc2)cc2[nH]ncc12", "TEST SYSTEM": "intracellular CK2α (Homo sapiens)", "CLASS LABEL": "No"}
{"SMILES STRING": "OCCOc1cc(CNCCCCOCCNc2cccc3[nH]ncc23)cc(OC(F)(F)F)c1", "TEST SYSTEM": "intracellular CK2α (Homo sapiens)", "CLASS LABEL": "No"}
{"SMILES STRING": "Cn1c(CNCCC(=O)NCCCNc2cc(-n3cnnc3)cc3[nH]ncc23)cc2ccc(Cl)cc21", "TEST SYSTEM": "intracellular CK2α (Homo sapiens)", "CLASS LABEL": "No"}
{"SMILES STRING": "CN(CCCNc1cc(-n2cnnc2)cc2[nH]ncc12)C(=O)CCNCc1ccc(OC(F)(F)F)c(Cl)c1", "TEST SYSTEM": "intracellular CK2α (Homo sapiens)", "CLASS LABEL": "No"}
{"SMILES STRING": "O=C(CCNCc1ccc(-c2ccccc2)c(Cl)c1)NCCCNc1cc(-c2cc[n+]([O-])cc2)cc2[nH]ncc12", "TEST SYSTEM": "intracellular CK2α (Homo sapiens)", "CLASS LABEL": "Yes"}
{"SMILES STRING": "FC(F)(F)c1ccc2[nH]c(CNCCCCOCCNc3cc(-c4cnoc4)cc4[nH]nnc34)cc2c1", "TEST SYSTEM": "intracellular CK2α (Homo sapiens)", "CLASS LABEL": "Yes"}
{"SMILES STRING": "Fc1cc(CNCCCCOCCNCc2cc(-n3cnnc3)cc3[nH]ncc23)cc(F)c1OC(F)(F)F", "TEST SYSTEM": "intracellular CK2α (Homo sapiens)", "CLASS LABEL": "No"}

====

Items are presented alongside their recorded log10 of IC50.
Molecular target: intracellular CK2α (Homo sapiens)
Assay: Cell-based NanoBRET assay for inhibitor binding to intracellular CK2α
Details: HCT116 cells transiently transfected with CSNK2A2-NanoLuc fusion vector; Tracer K-5; 2 h; read-out: Assay 3: NanoBRET ™ assay for binding to intracellular CK2α
MEASURE: log10 of IC50 (log10 of the value in nM)

{"MOLECULE": "OCc1cc(CNCCCCOC2CN(c3cc(-c4ccnnc4)cc4[nH]ncc34)C2)cc(C(F)(F)F)c1", "log10 of IC50": 4.15}
{"MOLECULE": "O=C(CCNCc1ccc(OC(F)(F)F)c(Cl)c1)NCCCNc1cc(-c2nnc[nH]2)cc2[nH]ncc12", "log10 of IC50": 3.67}
{"MOLECULE": "OCc1cc(CNCCCCOC2CN(c3cc(-c4cnoc4)cc4[nH]ncc34)C2)cc(C(F)(F)F)c1", "log10 of IC50": 3.51}
{"MOLECULE": "Fc1cc(CNCCCCOCCNc2cc(-c3ccncc3)c(F)c3[nH]ncc23)cc(F)c1OC(F)(F)F", "log10 of IC50": 2.34}
{"MOLECULE": "c1cc(-c2cc(NCCOCCCCNCc3cc4cc(OC5CCC5)ccc4[nH]3)c3cn[nH]c3c2)cnn1", "log10 of IC50": 1.84}
{"MOLECULE": "N#CCc1cc(CNCCCCOC2CN(c3cc(-c4ccnnc4)cc4[nH]nnc34)C2)cc(OC(F)(F)F)c1", "log10 of IC50": 4.29}
{"MOLECULE": "O=C(CCNCc1ccc(-c2ccccc2)c(Cl)c1)NCCCNc1cc(-c2cnoc2)cc2[nH]ncc12", "log10 of IC50": 1.85}
{"MOLECULE": "FC(F)(F)c1ccc2[nH]c(CNCCCCOCCOc3cc(-n4cnnc4)cc4[nH]ncc34)cc2c1", "log10 of IC50": 2.33}
{"MOLECULE": "O=C(CCNCc1ccc(-c2ccccc2)c(Cl)c1)NCCCNc1cc(C2CCOC2)cc2[nH]ncc12 (stereo not shown)", "log10 of IC50": 3.33}
{"MOLECULE": "FC(F)(F)Oc1ccc(CNCCCCOC2CN(c3cc(-n4cnnc4)cc4[nH]nnc34)C2)cc1Cl", "log10 of IC50": 4.53}
{"MOLECULE": "N#CCc1cc(CNCCCCOC2CN(c3cc(-c4cnoc4)cc4[nH]ncc34)C2)cc(OC(F)(F)F)c1", "log10 of IC50": 2.48}
{"MOLECULE": "O=C(CCNCc1ccc(-c2ccccc2)c(Cl)c1)NCCCNc1cc(C2CCOCC2)cc2[nH]ncc12", "log10 of IC50": 4.03}
{"MOLECULE": "CC(C)(C#N)c1cc(NCCOCCCCNCc2cc(CO)cc(OC(F)(F)F)c2)c2cn[nH]c2c1", "log10 of IC50": 2.77}
{"MOLECULE": "N#CCc1cc(F)cc(CNCCCCOC2CN(c3cc(-c4ccnnc4)cc4[nH]ncc34)C2)c1", "log10 of IC50": 3.91}
{"MOLECULE": "Cc1cc(-c2cc(NCCCNC(=O)CCNCc3ccc(-c4ccccc4)c(Cl)c3)c3cn[nH]c3c2)ccn1", "log10 of IC50": 2.54}
{"MOLECULE": "Nc1cc(-c2cc(NCCCNC(=O)CCNCc3ccc(OC(F)(F)F)c(Cl)c3)c3cn[nH]c3c2)ccn1", "log10 of IC50": 2.25}
{"MOLECULE": "FC(F)(F)Oc1ccc(CNCCCCOC2CN(c3cc(-c4cnoc4)cc4[nH]ncc34)C2)cc1Cl", "log10 of IC50": 3.46}

====

Target: intracellular CK2α (Homo sapiens, UniProt P19784)
Sequence (P19784 whole entry): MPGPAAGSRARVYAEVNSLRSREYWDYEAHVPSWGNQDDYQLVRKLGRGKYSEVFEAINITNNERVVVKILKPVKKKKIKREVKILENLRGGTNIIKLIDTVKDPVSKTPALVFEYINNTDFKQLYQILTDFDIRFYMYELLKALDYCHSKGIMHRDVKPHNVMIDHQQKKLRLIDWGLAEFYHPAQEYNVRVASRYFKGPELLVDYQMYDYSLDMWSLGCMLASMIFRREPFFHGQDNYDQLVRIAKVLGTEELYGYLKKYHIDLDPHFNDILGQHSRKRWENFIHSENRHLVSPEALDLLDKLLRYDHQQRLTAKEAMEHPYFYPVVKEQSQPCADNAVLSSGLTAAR
Test: Cell-based NanoBRET assay for inhibitor binding to intracellular CK2α
Details: HCT116 cells transiently transfected with CSNK2A2-NanoLuc fusion vector; Tracer K-5; 2 h; read-out: Assay 3: NanoBRET ™ assay for binding to intracellular CK2α
pIC50: −log10 of the molar value.
# binarize pIC50: threshold 6 inclusive, high side Satisfied, low side Not satisfied

{"MOLECULE": "N#CCc1cc(CNCCCCOCCOc2cc(-n3cnnc3)cc3[nH]nnc23)cc(OC(F)(F)F)c1 [Example 148]", "CLASS LABEL": "Not satisfied"}
{"MOLECULE": "O=C(O)Cc1cc(NCCOCCCCNCc2cc(F)c(OC(F)(F)F)c(F)c2)c2cn[nH]c2c1 [Example 198]", "CLASS LABEL": "Not satisfied"}
{"MOLECULE": "O=C(O)c1cc(NCCOCCCCNCc2cc3cc(C(F)(F)F)ccc3[nH]2)c2cn[nH]c2c1 [Example 85]", "CLASS LABEL": "Not satisfied"}
{"MOLECULE": "FC(F)(F)c1ccc2[nH]c(CNCCCCOC3CN(c4cc(-c5ccnnc5)cc5[nH]nnc45)C3)cc2c1 [Example 149]", "CLASS LABEL": "Not satisfied"}
{"MOLECULE": "O=C(CCNCc1ccc(OC2CCC2)c(CO)c1)NCCCNc1cc(-n2cnnc2)cc2[nH]ncc12 [Example 41]", "CLASS LABEL": "Not satisfied"}
{"MOLECULE": "Fc1cc(CNCCCCOC2CN(c3cc(-n4cnnc4)cc4[nH]ncc34)C2)ccc1OC(F)(F)F [Example 129]", "CLASS LABEL": "Not satisfied"}
{"MOLECULE": "CN(C)C(=O)c1cc(NCCCNC(=O)CCNCc2ccc(-c3ccccc3)c(Cl)c2)c2cn[nH]c2c1 [Example 62]", "CLASS LABEL": "Not satisfied"}
{"MOLECULE": "COC(=O)CCc1cc(NCCOCCCCNCc2cc3cc(C(F)(F)F)ccc3[nH]2)c2cn[nH]c2c1 [Example 88]", "CLASS LABEL": "Not satisfied"}
{"MOLECULE": "OCCOc1cc(CNC2CC(COCCNc3cc(-c4cnns4)cc4[nH]ncc34)C2)cc(OC(F)(F)F)c1 (stereo not shown) [Example 205]", "CLASS LABEL": "Satisfied"}
{"MOLECULE": "c1cc2[nH]c(CNCCCCOC3CN(c4cc(-c5cnoc5)cc5[nH]ncc45)C3)cc2cc1OC1CCC1 [Example 119]", "CLASS LABEL": "Not satisfied"}
{"MOLECULE": "FC(F)(F)c1ccc2[nH]c(CNCCCCOCCNc3cc(-c4ccnnc4)cc4[nH]ncc34)cc2c1 [Example 93]", "CLASS LABEL": "Satisfied"}
{"MOLECULE": "C[C@@H](CCCOCCNc1cc(-c2cnnc(O)c2)cc2[nH]ncc12)NCc1cc(CO)cc(OC(F)(F)F)c1 [Example 193]", "CLASS LABEL": "Satisfied"}
{"MOLECULE": "O=C(CCNCc1ccc(OC(F)(F)F)c(Cl)c1)NCCCOc1cc(-n2cnnc2)cc2[nH]ncc12 [Example 19]", "CLASS LABEL": "Not satisfied"}
